# experimentalSystem: Human immunodeficiency virus type 1 integrase (Human immunodeficiency virus 1)
# Sequence (Q7ZJM1 whole entry): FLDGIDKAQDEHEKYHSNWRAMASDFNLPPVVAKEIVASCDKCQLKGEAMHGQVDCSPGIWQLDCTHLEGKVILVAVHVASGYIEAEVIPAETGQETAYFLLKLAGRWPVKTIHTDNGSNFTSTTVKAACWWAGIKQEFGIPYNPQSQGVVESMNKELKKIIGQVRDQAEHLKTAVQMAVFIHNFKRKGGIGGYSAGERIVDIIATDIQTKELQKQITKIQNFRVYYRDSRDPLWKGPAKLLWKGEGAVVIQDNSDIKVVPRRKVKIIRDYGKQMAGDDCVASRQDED
pIC50: −log10 of the molar value.
reportedMetric: pIC50

Task item: Name the reported pIC50 value associated with the compound O=C1c2ccc(O)c(O)c2C(=O)c2c(O)ccc(O)c21
Reply: > 4.77

---

pKd: −log10 of the molar value.
reportedMetric: pKd

Task item: Item: O=C1c2ccc(O)c(O)c2C(=O)c2c(O)ccc(O)c21 Test system: UniProtKB Q7ZJM1 Read-out: pKd Value: ?
Reply: > 4.82
